Experiment: In vivo PK study in SD rats
Conditions: plasma, iv, rat, 3 mg/kg i.v., mean n = 3
Quantity kind: half-life (h)

>>> observed("COc1cc(OC)c2c(=O)[nH]c(-c3ccc(N4CCN(C)CC4)cc3)nc2c1 [MR2938]")
2.25

---

Experiment: In vivo PK study in SD rats
Conditions: plasma, po, rat, 10 mg/kg p.o., mean n = 3
Quantity kind: Tmax (min)

>>> observed("COc1cc(OC)c2c(=O)[nH]c(-c3ccc(N4CCN(C)CC4)cc3)nc2c1")
40

---

Assay: In vivo PK study in SD rats
Conditions: plasma, iv, rat, 3 mg/kg i.v., mean n = 3
Method: MR2938 was synthesized in-house following previously reported procedure (Lv et al. [2023]), and confirmed by NMR and HPLC chromatography (purity > 95%). […] After analyzing the concentration of MR2938 via LC–MS, the values of Cmax, Tmax, T1/2, Cl, AUClast, and AUCInf were calculated (Hu et al. [2018]). The bioavailability of MR2938 from the p.o. was calculated by comparing the area under the concentration–time curve (AUCInf) for the […] dose and that for the i.v. dose.
Quantity kind: AUC(0-inf) (ng·h/mL)

>>> observed("COc1cc(OC)c2c(=O)[nH]c(-c3ccc(N4CCN(C)CC4)cc3)nc2c1 [MR2938]")
1070

---

Assay: In vivo PK study in SD rats
Settings: plasma, po, rat, 10 mg/kg p.o., mean n = 3
Quantity kind: Cmax (ng/mL)

>>> observed("COc1cc(OC)c2c(=O)[nH]c(-c3ccc(N4CCN(C)CC4)cc3)nc2c1 [MR2938]")
592

---

Experiment: In vivo PK study in SD rats
Details: plasma, po, rat, 10 mg/kg p.o., mean n = 3
Quantity kind: AUC(0-t) (ng·h/mL)

>>> observed("COc1cc(OC)c2c(=O)[nH]c(-c3ccc(N4CCN(C)CC4)cc3)nc2c1")
2080

---

Test: In vivo PK study in SD rats
Conditions: plasma, po, rat, 10 mg/kg p.o., mean n = 3
Quantity kind: half-life (h)

>>> observed("COc1cc(OC)c2c(=O)[nH]c(-c3ccc(N4CCN(C)CC4)cc3)nc2c1")
2.87

---

Assay: In vivo PK study in SD rats
Settings: plasma, iv, rat, 3 mg/kg i.v., mean n = 3
Quantity kind: AUC(0-t) (ng·h/mL)

>>> observed("COc1cc(OC)c2c(=O)[nH]c(-c3ccc(N4CCN(C)CC4)cc3)nc2c1")
1060

---

Assay: In vivo PK study in SD rats
Settings: plasma, iv, rat, 3 mg/kg i.v., mean n = 3, read-out: Cl (plasma clearance)
Quantity kind: clearance (mL/min/kg)

>>> observed("COc1cc(OC)c2c(=O)[nH]c(-c3ccc(N4CCN(C)CC4)cc3)nc2c1")
47.2

---

Experiment: In vivo PK study in SD rats
Details: plasma, iv, rat, 3 mg/kg i.v., mean n = 3
Quantity kind: Cmax

>>> observed("COc1cc(OC)c2c(=O)[nH]c(-c3ccc(N4CCN(C)CC4)cc3)nc2c1")
"1030 ng/mL"

---

Assay: In vivo PK study in SD rats
Conditions: plasma, oral, rat, 10 mg/kg p.o. vs 3 mg/kg i.v., from AUCInf, read-out: F (oral bioavailability)
Quantity kind: bioavailability (%)

>>> observed("COc1cc(OC)c2c(=O)[nH]c(-c3ccc(N4CCN(C)CC4)cc3)nc2c1")
59
